Test: physchem
Conditions: 60 °C, aqueous buffer, thermodynamic from solid
Each entry below carries its recorded solubility at 1 h.
Numbers only here, please. The scale is µg/mL.

Guide cases for solubility at 1 h, answers given:
* c1cc(-c2ccc3ccc4ccc(-c5cccc6ccccc56)nc4c3n2)cc(-c2ccc3ccc4ccc(-c5cccc6ccccc56)nc4c3n2)c1 | 2.8
* c1ccc(-c2ccc3ccc4ccc(-c5ccc6ccc(-c7ccc8ccc9ccc(-c%10ccccc%10)nc9c8n7)cc6c5)nc4c3n2)cc1 | 2.6
* c1ccc(-c2ccc3ccc4ccc(-c5ccc(-c6ccc7ccc8ccc(-c9ccccc9)nc8c7n6)cc5)nc4c3n2)cc1 | 2.5
* CC(C)(C)c1ccc(-c2ccc3ccc4ccc(-c5ccc(-c6ccc7ccc8ccc(-c9ccc(C(C)(C)C)cc9)nc8c7n6)cc5)nc4c3n2)cc1 | 2.8
* c1cnc2c(c1)ccc1ccc(-c3ccc4ccc(-c5ccc6ccc7cccnc7c6n5)cc4c3)nc12 | 4

Here is the next item to consider.
Ask: // fetch solubility at 1 h given entry "c1cc(-c2ccc3ccc4cccnc4c3n2)cc(-c2ccc3ccc4cccnc4c3n2)c1"
Reply: 5
